The origin of these recorded values is the supplement of paper PMC11061612.

# Test system: NB(TU)1-10 (Neuroblastoma)
# experiment.description: Bliss excess, mean over the matrix (fraction); higher = more synergy
// 0 (no) strictly below -0.04 in Bliss excess; 1 (yes) otherwise

Q) hey, is Bliss excess for this one >= -0.04? Cc1cc2ncnn2cc1Nc1ncc2c(n1)n(C1CCOCC1)c(=O)n2C [AZD7648] + C[C@@H]1COCCN1C2=NC(=NC(=C2)C3(CC3)[S@](=N)(=O)C)C4=C5C=CNC5=NC=C4 [AZD6738] (first compound max 10 µM, 7x7, partner max 10 µM)
A) 1 (yes)

Q) Try the compound CCN(CCO)CCCOc1ccc2c(Nc3cc(CC(=O)Nc4cccc(F)c4)[nH]n3)ncnc2c1 [AZD2811] + C[C@@H]1COCCN1C2=NC(=NC(=C2)C3(CC3)[S@](=N)(=O)C)C4=C5C=CNC5=NC=C4 [AZD6738] (first compound max 1 µM, 7x7, partner max 10 µM)
A) 0 (no)

Q) Field entry: COc1cccc(OCCCN)c1-c1cc(Nc2cnc(C#N)cn2)n[nH]1 [Prexasertib] + Cc1cc2ncnn2cc1Nc1ncc2c(n1)n(C1CCOCC1)c(=O)n2C [AZD7648] (first compound max 1 µM, 7x7, partner max 10 µM)
A) 0 (no)

Q) Ok, now C=CCn1c(=O)c2cnc(Nc3ccc(N4CCN(C)CC4)cc3)nc2n1-c1cccc(C(C)(C)O)n1 [AZD1775] + C1CN(CCC1(C(=O)N[C@@H](CCO)C2=CC=C(C=C2)Cl)N)C3=NC=NC4=C3C=CN4 [Capivasertib] (first compound max 3 µM, partner max 3 µM)
A) 0 (no)

Q) Moving on to CCN(CCO)CCCOc1ccc2c(Nc3cc(CC(=O)Nc4cccc(F)c4)[nH]n3)ncnc2c1 [AZD2811] + O=C(c1cc(Cc2n[nH]c(=O)c3ccccc23)ccc1F)N1CCN(C(=O)C2CC2)CC1 [Olaparib] (first compound max 1 µM, 7x7, partner max 10 µM)
A) 1 (yes)

Q) Same read-out for Cc1cc2ncnn2cc1Nc1ncc2c(n1)n(C1CCOCC1)c(=O)n2C [AZD7648] + C=CCn1c(=O)c2cnc(Nc3ccc(N4CCN(C)CC4)cc3)nc2n1-c1cccc(C(C)(C)O)n1 [AZD1775] (first compound max 10 µM, partner max 1 µM) ?
A) 0 (no)

Q) And then CN(C)CCCOc1ccc(-c2ccc3ncc4c(c3c2)n(C2CCOCC2)c(=O)n4C)cn1 [AZD0156] + O=C(c1cc(Cc2n[nH]c(=O)c3ccccc23)ccc1F)N1CCN(C(=O)C2CC2)CC1 [Olaparib] (first compound max 3 µM, partner max 3 µM) , what is it?
A) 1 (yes)

Q) Repeat with CCN(CCO)CCCOc1ccc2c(Nc3cc(CC(=O)Nc4cccc(F)c4)[nH]n3)ncnc2c1 [AZD2811] + C=CCn1c(=O)c2cnc(Nc3ccc(N4CCN(C)CC4)cc3)nc2n1-c1cccc(C(C)(C)O)n1 [AZD1775] (first compound max 1 µM, partner max 1 µM)
A) 1 (yes)

====

# System: SW1990 (Pancreatic Carcinoma)
# experiment.description: combination Emax (second highest fraction inhibited in the dose matrix, 72 h); higher = more inhibition; extreme values may be limits of the assay
recorded.metric: combination Emax
Enter a number only.

Q) Return reported combination Emax; argument: CC(=O)Nc1cccc(-n2c(=O)n(C3CC3)c(=O)c3c(Nc4ccc(I)cc4F)n(C)c(=O)c(C)c32)c1 [Trametinib] + Cc1nc(-c2cn3c(n2)-c2ccc(-c4cnn(C(C)(C)C(N)=O)c4)cc2OCC3)n(C(C)C)n1 [Taselisib] (first compound max 1 µM, 7x7, partner max 10 µM)
A) 0.971

Q) Query Cc1c2c(nn1C)CSCc1cc(n(C)n1)CSc1cc(c3ccccc3c1)OCCCc1c(C(=O)O)n(C)c3c-2c(Cl)ccc13 [AZD5991] + Nc1ccn([C@@H]2O[C@H](CO)[C@@H](O)C2(F)F)c(=O)n1 [Gemcitabine] (first compound max 1 µM, 7x7, partner max 0.3 µM) next
A) 0.353

Q) Then C=CCn1c(=O)c2cnc(Nc3ccc(N4CCN(C)CC4)cc3)nc2n1-c1cccc(C(C)(C)O)n1 [AZD1775] + CCc1c2c(nc3ccc(O)cc13)-c1cc3c(c(=O)n1C2)COC(=O)[C@]3(O)CC [SN-38] (first compound max 1 µM, partner max 0.3 µM) ?
A) 0.542

Q) Same question for NC1(C(=O)N[C@@H](CCO)c2ccc(Cl)cc2)CCN(c2ncnc3[nH]ccc23)CC1 [Capivasertib] + Cn1cnc2c(F)c(Nc3ccc(Br)cc3Cl)c(C(=O)NOCCO)cc21 [Selumetinib] (first compound max 10 µM, 7x7, partner max 10 µM) please.
A) 0.368

====

# Test system: HCC2157 (Breast Carcinoma)
# experiment.description: combination Emax (second highest fraction inhibited in the dose matrix, 72 h); higher = more inhibition; extreme values may be limits of the assay
recorded.metric: combination Emax
Reply with the value as a number alone.

Q) Reported combination Emax, compound C[C@@H](c1ccc2nccn2c1)n1nnc2ncc(-c3cnn(C)c3)nc21 [Savolitinib] + CC1(C)CCC(CN2CCN(c3ccc(C(=O)NS(=O)(=O)c4ccc(NCC5CCOCC5)c([N+](=O)[O-])c4)c(Oc4cnc5[nH]ccc5c4)c3)CC2)=C(c2ccc(Cl)cc2)C1 [Venetoclax] (first compound max 1 µM, 7x7, partner max 1 µM) : ____
A) 0.186

Q) What would you report for COc1cc2c(cc1OCCCCCOc1cc3c(cc1OC)C(=O)N1C=C(C)C[C@H]1C=N3)N=C[C@@H]1CC(C)=CN1C2=O [SG3199] + O=C(c1cc(Cc2n[nH]c(=O)c3ccccc23)ccc1F)N1CCN(C(=O)C2CC2)CC1 [Olaparib] (first compound max 0.001 µM, 7x7, partner max 10 µM) ?
A) 0.264

Q) Next compound up: NC1(C(=O)N[C@@H](CCO)c2ccc(Cl)cc2)CCN(c2ncnc3[nH]ccc23)CC1 [Capivasertib] + COc1nnc2ccc(N3CCC(c4ccc(OCCN5CCN(C)C(=O)[C@H]5C)cc4)CC3)nn12 [AZD5153] (first compound max 10 µM, 7x7, partner max 1 µM)
A) 1

====

# Tested on: SW1783 (Low Grade Glioma)
# experiment.description: Bliss excess, mean over the matrix (fraction); higher = more synergy
recorded.metric: Bliss excess
Lab note: record just the number, no unit beside it.

Q) So what does the record say about Bliss excess for NC1(C(=O)N[C@@H](CCO)c2ccc(Cl)cc2)CCN(c2ncnc3[nH]ccc23)CC1 [Capivasertib] + CC(=O)c1c(C)c2cnc(Nc3ccc(N4CCNCC4)cn3)nc2n(C2CCCC2)c1=O [Palbociclib] (first compound max 10 µM, 7x7, partner max 10 µM) ?
A) -0.0263

Q) Another: CN(C)CCCOc1ccc(-c2ccc3ncc4c(c3c2)n(C2CCOCC2)c(=O)n4C)cn1 [AZD0156] + C[C@@H]1COCCN1C2=NC(=NC(=C2)C3(CC3)[S@](=N)(=O)C)C4=C5C=CNC5=NC=C4 [AZD6738] (first compound max 1 µM, 7x7, partner max 10 µM)
A) -0.0435

====

# Tested on: DMS-273 (Small Cell Lung Carcinoma)
# experiment.description: Bliss excess, mean over the matrix (fraction); higher = more synergy
recorded.metric: Bliss excess

Q) Recorded Bliss excess for CN(C)CCCOc1ccc(-c2ccc3ncc4c(c3c2)n(C2CCOCC2)c(=O)n4C)cn1 [AZD0156] + C[C@@H]1COCCN1C2=NC(=NC(=C2)C3(CC3)[S@](=N)(=O)C)C4=C5C=CNC5=NC=C4 [AZD6738] (first compound max 1 µM, 7x7, partner max 10 µM) with DMS-273 (Small Cell Lung Carcinoma), please?
A) 0.0084

Q) Same again, this time with Cc1c2c(nn1C)CSCc1cc(n(C)n1)CSc1cc(c3ccccc3c1)OCCCc1c(C(=O)O)n(C)c3c-2c(Cl)ccc13 [AZD5991] + Cc1cc2ncnn2cc1Nc1ncc2c(n1)n(C1CCOCC1)c(=O)n2C [AZD7648] (first compound max 1 µM, 7x7, partner max 10 µM)
A) -0.0113

Q) Please give the result for COc1nnc2ccc(N3CCC(c4ccc(OCCN5CCN(C)C(=O)[C@H]5C)cc4)CC3)nn12 [AZD5153] + CN(CC[C@H](CSC1=CC=CC=C1)NC2=C(C=C(C=C2)S(=O)(=O)NC(=O)C3=CC=C(C=C3)N4CCC(CC4)[C@H](C5=CC=CC=C5C6=CC=C(C=C6)Cl)O)S(=O)(=O)C(F)(F)F)CCO [AZD4320] (first compound max 1 µM, 7x7, partner max 1 µM) too.
A) 0.0043

Q) Now the same for CN(CCO)CC[C@H](CSc1ccccc1)Nc1ccc(S(=O)(=O)NC(=O)c2ccc(N3CCC([C@@H](O)c4ccccc4-c4ccc(Cl)cc4)CC3)cc2)cc1S(=O)(=O)C(F)(F)F [AZD4320] + C[C@@H](Nc1cc(F)cc(F)c1)c1cc(C(=O)N(C)C)cc2c(=O)cc(N3CCOCC3)oc12 [AZD8186] (first compound max 1 µM, 7x7, partner max 3 µM)
A) 0.0236

Q) Same read-out for CC1(C)CCC(CN2CCN(c3ccc(C(=O)NS(=O)(=O)c4ccc(NCC5CCOCC5)c([N+](=O)[O-])c4)c(Oc4cnc5[nH]ccc5c4)c3)CC2)=C(c2ccc(Cl)cc2)C1 [Venetoclax] + C=CCn1c(=O)c2cnc(Nc3ccc(N4CCN(C)CC4)cc3)nc2n1-c1cccc(C(C)(C)O)n1 [AZD1775] (first compound max 1 µM, partner max 1 µM) ?
A) -0.0711
